Can you tell me IC50 for the items I'm about to list?
molecular target: IL-17A/A (Homo sapiens, UniProt Q16552); test: IL-17A/A HEK-Blue cell assay; conditions: HEK-Blue IL-17A reporter cell line (HEK 293), IL-17A/A stimulation, 20 hours incubation, SEAP read at A630
Sequence (Q16552 24-155): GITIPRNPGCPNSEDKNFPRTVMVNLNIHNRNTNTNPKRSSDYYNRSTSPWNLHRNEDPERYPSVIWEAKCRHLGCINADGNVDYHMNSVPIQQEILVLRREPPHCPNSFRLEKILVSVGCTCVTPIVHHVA

Record CCn1nccc1C(=O)N[C@H](c1cn2nc(C[C@@H]3CCCNC3=O)ccc2n1)[C@H]1CC[C@H](C)CC1 , field IC50: 100 to 1000 nM

What the record says about CCn1nccc1C(=O)N[C@H](c1cn2ncc(CC3CCCNC3=O)cc2n1)C1CCCCCC1 (mixture of isomers) : IC50 is > 1000 nM

Entry CC[C@@H](c1ccc(F)cc1)C(NC(=O)c1ccnn1CC)c1cn2nc(CC3CC(F)(F)CNC3=O)ccc2n1 (single isomer, unassigned) [Compound 30] ; IC50 = 100 to 1000 nM

The molecule CCn1nccc1C(=O)N[C@H](c1cn2nc(CC3C[C@@H](C(F)(F)F)CNC3=O)c(N(C)C3CCOCC3)cc2n1)C1CCC(F)(F)CC1 (single isomer, unassigned) [Compound 94] showed IC50 equal to < 100 nM

In plain terms, Cc1nonc1C(=O)N[C@H](c1cn2nc(C[C@H]3CCCNC3=O)ccc2n1)C(C1CC1)C1CC1 has a documented IC50 of > 1000 nM

The measured IC50 associated with O=C(N[C@H](c1cn2nc(CC3C[C@@H](C(F)(F)F)CNC3=O)ccc2n1)C1CCC(F)(F)CC1)c1nonc1C(F)F (stereo partly shown) reads 100 to 1000 nM

For CCn1nccc1C(=O)N[C@H](c1cn2nc(CC3C[C@@H](C(F)(F)F)CNC3=O)ccc2n1)C12CC(C)(C1)C2 (stereo partly shown) the molecule record lists IC50 as > 1000 nM

Record CCn1nccc1C(=O)N[C@H](c1cn2nc(CC3C[C@@H](C(F)(F)F)CNC3=O)ccc2n1)C1CC(C2CC2)(C2CC2)C1 (stereo partly shown) , field IC50: > 1000 nM

Note to self: IC50 recorded for CCn1nccc1C(=O)N[C@H](c1cn2nc(CC3CC(F)(F)CNC3=O)c(C)cc2n1)C1CCC(F)(F)CC1 (single isomer, unassigned) [Compound 76] was 100 to 1000 nM

The reported value for O=C(N[C@H](c1cn2nc(CC3C[C@@H](C(F)(F)F)CNC3=O)ccc2n1)C1CCC(F)(F)CC1)c1ccnn1CC(F)F (stereo partly shown) in terms of IC50 is 100 to 1000 nM

Noted for O=C(N[C@H](c1cn2nc(CC3C[C@@H](C(F)(F)F)CNC3=O)ccc2n1)[C@H]1CCCC(F)(F)C1)c1conc1C1CC1 (stereo partly shown) : its IC50 reads < 100 nM

Briefly, IC50 measured for CCn1nccc1C(=O)N[C@H](c1cn2nc(CC3C[C@@H](C(F)(F)F)CNC3=O)ccc2n1)[C@H]1C[C@@H](C2CC2)C1 (stereo partly shown) : > 1000 nM

Quick note, IC50 for CCn1nccc1C(=O)N[C@H](c1cn2nc(CC3CCC(C(F)(F)F)NC3=O)ccc2n1)C(C1CC1)C1CC1 (single isomer, unassigned) [Compound 42] landed at > 1000 nM

---

target: IL-17A/A (Homo sapiens, UniProt Q16552); test: IL-17A/A HEK-Blue cell assay; settings: HEK-Blue IL-17A reporter cell line (HEK 293), IL-17A/A stimulation, 20 hours incubation, SEAP read at A630
Readout Name: IC50

For this compound ( CCn1nccc1C(=O)N[C@H](c1cn2nc(CC3C(=O)NCCC3C)ccc2n1)[C@H]1CC[C@H](C)CC1 (single isomer, unassigned) [Compound 52] ), measured IC50 is > 1000 nM

# IC50 of CCn1nccc1C(=O)N[C@H](c1cn2nc(CC3C[C@@H](C(F)(F)F)CNC3=O)ccc2n1)[C@@H]1C[C@H]2C[C@H]2C1 (some centres unmarked) = > 1000 nM

IC50 measured on CCn1nccc1C(=O)N[C@H](c1cn2nc(CC3C[C@@H](C(F)(F)F)CNC3=O)ccc2n1)C1CC2(CC2)C1 (some centres unmarked) = > 1000 nM

Summary for this compound, O=C(N[C@H](c1cn2nc(CC3C[C@@H](C(F)(F)F)CNC3=O)ccc2n1)C1CCC(F)(F)CC1)c1conc1C1(F)CC1 (some centres unmarked) : IC50 is 100 to 1000 nM

Lab note: measured IC50 of CCn1nccc1C(=O)N[C@H](c1cn2nc(CC3CCNC3=O)ccc2n1)C1CCC(F)(F)CC1 (single isomer, unassigned) was > 1000 nM

CC(C)c1nonc1C(=O)N[C@H](c1cn2nc(CC3C[C@@H](C(F)(F)F)CNC3=O)ccc2n1)C1CCC(F)(F)CC1 (some centres unmarked) yielded IC50 of < 100 nM

IC50 measured on CCn1nccc1C(=O)N[C@H](c1cn2nc(CC3CC(F)(F)CNC3=O)c(OC)cc2n1)C1CCC(F)(F)CC1 (some centres unmarked) = > 1000 nM

Sure, the documented IC50 for CC1(c2nocc2C(=O)N[C@H](c2cn3nc(CC4C[C@@H](C(F)(F)F)CNC4=O)ccc3n2)C2CCC(F)(F)CC2)CC1 (some centres unmarked) is 100 to 1000 nM

IC50 reported for this compound CCc1nonc1C(=O)N[C@H](c1cn2nc(C[C@H]3C[C@@H](C(F)(F)F)NC3=O)ccc2n1)C1CCC(F)(F)CC1 : 100 to 1000 nM

Consider CCn1nccc1C(=O)N[C@H](c1cn2nc(CC3CC(F)(F)CNC3=O)ccc2n1)C1CCC(F)(F)CC1 (single isomer, unassigned) [Compound 24] . Its measured IC50 is > 1000 nM

The recorded IC50 for CCn1nccc1C(=O)N[C@H](c1cn2nc(CC3CC(F)(F)CNC3=O)ccc2n1)C1CCCCCC1 (single isomer, unassigned) [Compound 10] is 100 to 1000 nM

Summary for this compound, CCn1nccc1C(=O)N[C@H](c1cn2nc(CC3C[C@@H](C(F)(F)F)CNC3=O)ccc2n1)C1CCC2(CC1)CC2 (single isomer, unassigned) : IC50 is 100 to 1000 nM

IC50 recorded for this compound, CC[C@@H](c1ccc(F)cc1)[C@H](NC(=O)c1ccnn1CC)c1cn2ncc(CC3C[C@@H](C(F)(F)F)NC3=O)cc2n1 (single isomer, unassigned) [Compound 218] , is < 100 nM

Consider Cc1n[nH]cc1C(=O)N[C@H](c1cn2nc(CC3C[C@@H](C(F)(F)F)CNC3=O)ccc2n1)C1CCC(F)(F)CC1 (some centres unmarked) . Its measured IC50 is > 1000 nM

# IC50 (compound: CCc1nonc1C(=O)N[C@H](c1cn2nc(C[C@H]3C[C@@H](C(F)(F)F)NC3=O)ccc2n1)C(C1CC1)C1CC1 ) is 100 to 1000 nM

GET /value?item= CCn1nccc1C(=O)N[C@H](c1cn2nc(CC3C[C@@H](C(F)(F)F)CNC3=O)c(OC(C)C)cc2n1)C1CCC(F)(F)CC1 (some centres unmarked) &field=IC50 returns < 100 nM

According to the records, this compound CCc1nonc1C(=O)N[C@H](c1cn2nc(CC3C[C@@H](C(F)(F)F)CNC3=O)ccc2n1)[C@H]1CC[C@H](C)CC1 (some centres unmarked) displays IC50 of < 100 nM

// sample CCn1nccc1C(=O)N[C@H](c1cn2nc(C[C@H]3C[C@@H](C(F)(F)F)CNC3=O)c(C#N)cc2n1)C1CCC(F)(F)CC1 , its IC50 was 100 to 1000 nM

For CCn1nccc1C(=O)N[C@H](c1cn2nc(CC3C[C@@H](C(F)(F)F)CNC3=O)c(C(F)(F)F)cc2n1)[C@H]1CC[C@H](C)CC1 (single isomer, unassigned) [Compound 78] the compound record lists IC50 as 100 to 1000 nM

The compound identified as CCn1nccc1C(=O)N[C@H](c1cn2nc(CC3C[C@H](C(F)(F)F)CNC3=O)c(C)cc2n1)C1CCC(F)(F)CC1 (single isomer, unassigned) registered its IC50 at < 100 nM

Cited source for all entries: patent US20250346602A1
